system: Escherichia coli; details: Concentration 32 ug.mL-1;; ASSAY_TEST Inhibition of Bacterial Growth; detection method Absorption (OD600); MEDIA CAMHB; plate type 384well; NBS; CORNING #3640; time 18 hr
Description: Antibacterial activity against Escherichia coli ATCC 25922 (CO-ADD:GN_001); MIC in CAMBH media using NBS plates, by OD(600)
Measured potencies and affinities stand elsewhere.

record_smiles: COc1ccccc1-n1ccn2c(SCc3ccccc3F)nnc2c1=O
Inhibition / %: -2.76
--
record_smiles: CCc1cccc(NC(=O)Cn2c(=O)c3nnc(C(C)C)n3c3ccccc32)c1
Inhibition / %: 8.67
--
record_smiles: O=C(Cn1nc2nc(Nc3ccc(F)cc3)ccn2c1=O)N1CCCC1
Inhibition / %: -12.03
--
record_smiles: COc1cc(OC)c(NC(=O)Cn2nc3ccc(Sc4cccc(F)c4)nn3c2=O)cc1Cl
Inhibition / %: -1.59
--
record_smiles: O=S(=O)(c1ccc2nncn2c1)N(Cc1cc(F)cc(F)c1)c1cccc(F)c1
Inhibition / %: -5.68
--
record_smiles: O=C(Cn1nc2ccc(SCc3ccc(Cl)cc3)nn2c1=O)NCc1ccc2c(c1)OCO2
Inhibition / %: -11.22
--
record_smiles: Cc1cccc(NC(=O)Cn2nc3c(SCc4ccc(Cl)cc4)nccn3c2=O)c1C
Inhibition / %: -3.65
--
record_smiles: COc1ccc(-n2ccn3c(SCC(=O)N4CCN(c5ccccc5F)CC4)nnc3c2=O)cc1
Inhibition / %: -4.94
--
record_smiles: CCCCn1c(=O)c2sccc2n2c(=O)n(CC(=O)N3CCC(Cc4ccccc4)CC3)nc12
Inhibition / %: -3.89
--
record_smiles: O=c1n(Cc2cccc(C(F)(F)F)c2)nc2ccc(S(=O)(=O)N3CCCCC3)cn12
Inhibition / %: 0.28

====

test system: Escherichia coli; conditions: Concentration 32 ug.mL-1;; ASSAY_TEST Inhibition of Bacterial Growth; detection method Absorption (OD600); MEDIA CAMHB; plate type 384well; NBS; CORNING #3640; time 18 hr
Potency and affinity values are given separately.
The entries below come with measured Inhibition values attached.

record_smiles: Cc1ccccc1Oc1nccn2c(=O)n(CC(=O)Nc3ccc(Cl)c(Cl)c3)nc12
Inhibition: -4.77%
//
record_smiles: Cc1ccc(-c2ccc3nn(Cc4c(F)cccc4Cl)c(=O)n3n2)cc1
Inhibition: -0.36%
//
record_smiles: COC(=O)c1ccc(NC(=O)Cn2nc3c(Oc4ccccc4)nccn3c2=O)cc1
Inhibition: -10.41%
//
record_smiles: O=C(Cn1nc2c(SCc3ccccc3)nccn2c1=O)NC1CCCC1
Inhibition: 0.2%
//
record_smiles: COc1cc(NC(=O)Cn2nc3ccc(SC(C)C)nn3c2=O)cc(OC)c1
Inhibition: -2.23%

====

The entries below come with measured Inhibition values attached.
tested on: Staphylococcus aureus; details: Concentration 32 ug.mL-1;; ASSAY_TEST Inhibition of Bacterial Growth; detection method Absorption (OD600); MEDIA CAMHB; plate type 384well; NBS; CORNING #3640; time 18 hr
Description: Antibacterial activity against Staphylococcus aureus MRSA ATCC 43300 (CO-ADD:GP_020); MIC in CAMBH media, using NBS plates, by OD(600)
Entries with a potency or affinity are not part of this list.
reported_metric: Inhibition

molecule: CCCCc1ccc(NC(=O)Cn2nc3ccc(C(=O)Nc4ccc(OC)cc4)cn3c2=O)cc1
target_or_test_system: Staphylococcus aureus
reported_metric: Inhibition
result: 3.96%
//
molecule: COC(=O)c1ccc(CN(c2ccc(Cl)cc2)S(=O)(=O)c2ccc3nncn3c2)o1
target_or_test_system: Staphylococcus aureus
reported_metric: Inhibition
result: 10.93%
//
molecule: CCOc1ccc(-n2ccn3c(SC(C)C(=O)Nc4ccc5c(c4)OCCO5)nnc3c2=O)cc1 (stereo not given)
target_or_test_system: Staphylococcus aureus
reported_metric: Inhibition
result: 14.02%
//
molecule: Cc1ccc(-c2cc3c4nnc(SCC(=O)Nc5ccccc5Br)n4ccn3n2)cc1
target_or_test_system: Staphylococcus aureus
reported_metric: Inhibition
result: 1.85%
//
molecule: Cc1ccc(Oc2nccn3c(=O)n(CC(=O)Nc4cccc(Cl)c4)nc23)cc1
target_or_test_system: Staphylococcus aureus
reported_metric: Inhibition
result: -3.9%
//
molecule: COc1ccc(OC)c(NC(=O)Cn2nc3c4cc(-c5ccc(F)cc5)nn4ccn3c2=O)c1
target_or_test_system: Staphylococcus aureus
reported_metric: Inhibition
result: 7.29%
//
molecule: COC(=O)c1ccc(NC(=O)Cn2nc3c4sc(N5CCCC5)nc4ncn3c2=O)cc1
target_or_test_system: Staphylococcus aureus
reported_metric: Inhibition
result: -12.82%
//
molecule: Cc1cc(C)cc(Nc2nc(C)cc3nn(CC(=O)NC4CCCCC4)c(=O)n23)c1
target_or_test_system: Staphylococcus aureus
reported_metric: Inhibition
result: 14.04%
//
molecule: CSc1cccc(NC(=O)Cn2nc3ccc(-c4ccc(C)c(C)c4)nn3c2=O)c1
target_or_test_system: Staphylococcus aureus
reported_metric: Inhibition
result: -11.35%
//
molecule: Cc1ccc(Nc2cc(C)n3c(=O)n(CCOc4ccc(F)cc4)nc3n2)cc1
target_or_test_system: Staphylococcus aureus
reported_metric: Inhibition
result: 8.99%
